B1: Cyanovirin-N, P81180 (parent)
chain: LGKFSQTCYNSAIQGSVLTSTCERTNGGYNTSSIDLNSVIENVDGSLKWQPSNFIETCRNTQLAGSSELAAECKTRAQQFVSTKINLDDHIANIDGTLKYE

- Variants of: B1
- ASSAY_CONTEXT: Nostoc ellipsosporum; pH 6; Thermal; CD; sodium phosphate 20 mM; transition: 2; reversible: yes(90%); structure 1IIY; whole UniProt chain shown
We use 8 °C as the dividing line for change of melting temperature, mutant - wild type (higher = more stable): on or above the line is 1.0, below is 0.0.

[[record]]
mutation_notation = "P51G S11A S20A T61I"
classification = 1.0

[[record]]
mutation_notation = "P51G S11V S20A"
classification = 0.0

[[record]]
mutation_notation = "P51G"
classification = 0.0


Q) Is change of melting temperature, mutant - wild type (higher = more stable) for P51G S11A S20A at or above 8 °C?
A) 0.0
